The measured values listed here are drawn from patent US20050090522A1.

Experiment: Rat IV and PO pharmacokinetic studies
Settings: male, Sprague-Dawley, in vivo, iv, 1 mg/kg, CL, iv dosing at 1 mg/kg
value type: clearance (mL/min/kg)
Note: unit mL/min/kg is implicit; provide only the numeric part.

Query string: If you can, please state the reported clearance value of COc1cnc(-n2cc(C)nn2)c2[nH]cc(C(=O)C(=O)N3CCN(C(=O)c4ccccc4)[C@H](C)C3)c12 .
Result string: 8.3

Query string: If you can, please state the reported clearance value of O=C(C(=O)N1CCN(C(=O)c2ccccc2)CC1)c1c[nH]c2c(-n3nccn3)ccnc12 .
Result string: 5.4

====

Test: Rat IV and PO pharmacokinetic studies
Settings: male, Sprague-Dawley, in vivo, iv, 1 mg/kg, CL, iv dosing at 1 mg/kg
value type: clearance (mL/min/kg)
Note: unit mL/min/kg is implicit; provide only the numeric part.

As a guide, the following entries are already answered.
{"compound": "COc1cnc(-n2cncn2)c2[nH]cc(C(=O)C(=O)N3CCN(C(=O)c4ccccc4)CC3)c12 [Example 187]", "clearance, mL/min/kg": 2.4}
{"compound": "COc1cnc(-n2ccc(CO)n2)c2[nH]cc(C(=O)C(=O)N3CCN(C(=O)c4ccccc4)[C@H](C)C3)c12 [Example 236]", "clearance, mL/min/kg": 29}
{"compound": "COc1cnc(-c2cnccn2)c2[nH]cc(C(=O)C(=O)N3CCN(C(=O)c4ccccn4)CC3)c12 [Example 102]", "clearance, mL/min/kg": 12}
{"compound": "C[C@@H]1CN(C(=O)C(=O)c2c[nH]c3c(-c4nccs4)ccnc23)CCN1C(=O)c1ccccc1 [Example 354]", "clearance, mL/min/kg": 11.2}
{"compound": "C[C@@H]1CN(C(=O)C(=O)c2c[nH]c3c(-n4nccn4)ccnc23)CCN1C(=O)c1ccccc1 [Example 355]", "clearance, mL/min/kg": 13.9}

Query string: If you can, please state the reported clearance value of CCc1ncn(-c2ncc(OC)c3c(C(=O)C(=O)N4CCN(C(=O)c5ccccc5)[C@H](C)C4)c[nH]c23)n1 [Example 322] .
Result string: 1.8

Query string: If you can, please state the reported clearance value of COc1cnc(-n2ccnn2)c2[nH]cc(C(=O)C(=O)N3CCN(C(=O)c4ccccc4)CC3)c12 [Example 188] .
Result string: 2.4

====

System: HeLa cells
Experiment: Cytotoxicity assay in HeLa cells (MTT dye reduction, CC50)
Settings: cytotoxicity; Yes = CC50 above 100 uM, No = not
value type: CC50 > 100 uM

{"molecule": "COc1ncc(-c2ncc(OC)c3c(C(=O)C(=O)N4CCN(C(=O)c5ccccc5)CC4)c[nH]c23)c(OC)n1 [Example 13]", "value type": "CC50 > 100 uM", "endpoint value": "Yes"}
{"molecule": "O=C(C(=O)N1CCN(C(=O)c2ccccc2)CC1)c1c[nH]c2c(-c3c[nH]nn3)ncc(F)c12 [Example 299]", "value type": "CC50 > 100 uM", "endpoint value": "No"}
{"molecule": "COc1cnc(-c2cc[nH]n2)c2[nH]cc(C(=O)C(=O)N3CCN(C(=O)c4ccccc4)CC3)c12 [Example 39]", "value type": "CC50 > 100 uM", "endpoint value": "No"}

====

Experiment: Rat IV and PO pharmacokinetic studies
Details: male, Sprague-Dawley, in vivo, iv, 1 mg/kg, CL, iv dosing at 1 mg/kg
Respond with condition met for clearance values of 10 mL/min/kg and above, condition not met for values below.

{"cpd smiles": "COc1cnc(-n2cnc(C)n2)c2[nH]cc(C(=O)C(=O)N3CCN(C(=O)c4ccccc4)[C@H](C)C3)c12", "assigned class": "condition not met"}

Query string: Hi, just wondering whether COc1cnc(-n2cncn2)c2[nH]cc(C(=O)C(=O)N3CCN(C(=O)c4ccccc4)[C@H](C)C3)c12 shows clearance of 10 mL/min/kg or higher.
Result string: condition not met

Query string: Hi, just wondering whether C[C@@H]1CN(C(=O)C(=O)c2c[nH]c3c(-c4ncco4)ccnc23)CCN1C(=O)c1ccccc1 shows clearance of 10 mL/min/kg or higher.
Result string: condition not met

Query string: Hi, just wondering whether COc1cnc(-n2ccc(C)n2)c2[nH]cc(C(=O)C(=O)N3CCN(C(=O)c4ccccc4)CC3)c12 shows clearance of 10 mL/min/kg or higher.
Result string: condition not met

Query string: Hi, just wondering whether COc1cnc(-n2ccnc2)c2[nH]cc(C(=O)C(=O)N3CCN(C(=O)c4ccccc4)CC3)c12 shows clearance of 10 mL/min/kg or higher.
Result string: condition not met

Query string: Hi, just wondering whether COc1cnc(-c2cnc(N)cn2)c2[nH]cc(C(=O)C(=O)N3CCN(C(=O)c4ccccc4)[C@H](C)C3)c12 shows clearance of 10 mL/min/kg or higher.
Result string: condition met

Query string: Hi, just wondering whether Cc1ccn(-c2ncc(F)c3c(C(=O)C(=O)N4CCN(C(=O)c5ccccc5)CC4)c[nH]c23)n1 shows clearance of 10 mL/min/kg or higher.
Result string: condition met

Query string: Hi, just wondering whether Nc1ccn(-c2ncc(F)c3c(C(=O)C(=O)N4CCN(C(=O)c5ccccc5)CC4)c[nH]c23)n1 shows clearance of 10 mL/min/kg or higher.
Result string: condition met

Query string: Hi, just wondering whether Cc1ncn(-c2ncc(F)c3c(C(=O)C(=O)N4CCN(C(=O)c5ccccc5)CC4)c[nH]c23)n1 shows clearance of 10 mL/min/kg or higher.
Result string: condition not met

Query string: Hi, just wondering whether COc1cnc(-c2ncon2)c2[nH]cc(C(=O)C(=O)N3CCN(C(=O)c4ccccc4)CC3)c12 shows clearance of 10 mL/min/kg or higher.
Result string: condition met
